- experiment: NCI Yeast Anticancer Drug Screen. Data for the sgs1 mgt1 strain (AID 161);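 also: 0% = growth of cultures given vehicle only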
- experimental_parameters: S. cerevisiae sgs1 mgt1 strain, at 5.0 µM (retest, dose inferred, filed as 0.5)
The panel holds about 79,000 compounds, 15% with a hit somewhere; the sample as a whole holds those more often. Activity calls are given as the source filed them. Rule as the data show it: active = growth inhibition above about 70%; inactive = the rest.
Labels: 1 (active), 0 (inactive)

>>> print(df.to_string())
                                 smiles_str  classification
0                  COc1ccc(N=NC(C#N)C#N)cc1               0
1                Oc1ccc(Nc2ccc3ccccc3c2)cc1               0
2           CC(=O)Oc1ccc(OC(C)=O)c2c1CC=CC2               0
3  COc1cc2c(c(OC)c1OC)-c1ccc(NCc3ccccc3)c(=O)cc1[C@@H](NC(C)=O)CC2               0
4                       CCCCCCCCCCCCSC(=N)N               1
5                     CCC(C)(CC)c1ccc(O)cc1               0
6                     NC(=S)N/N=C/c1ncccc1O               0

###

- experiment: NCI Yeast Anticancer Drug Screen. Data for the bub3 strain (AID 167)
- experimental_parameters: S. cerevisiae bub3 mutant strain, at 50.0 µM (retest, dose inferred, filed as 5.0)
About 79,000 compounds went through this panel and 15% of them were active in at least one assay; those are over-represented in the sample as a whole. Activity calls are given as the source filed them. Cut-off read from the data, not from the text of the source: active = growth inhibition above about 70%; inactive = the rest. Where a SMILES comes first, the peptide text is derived from it. [ ]: non-standard residue; d: D form. ξ: configuration not given here. ξD = NC(CC(=O)O)C(=O)O
Labels: Yes = active, No = inactive

compound	classification
NCC(=O)NC(CC(=O)O)C(=O)O (configuration not stated) (H-Gly-[ξD]-OH)	No
S=C1NC2=C(COc3ccccc32)C(c2ccc(Cl)cc2)N1 (configuration not stated)	Yes
CC(C)c1ccc(Nc2n[nH]c(=S)s2)cc1	Yes
CN=C(N)N/N=C(\c1ccccc1)c1ccc(Br)cc1	No
OC(c1cc(-c2ccc(C(F)(F)F)cc2)nc(C(F)(F)F)c1)C1CCCCN1 (configuration not stated)	No
O=Cc1ccc(O)c(O)c1O	Yes
O=C(NOC(=O)c1ccccc1)c1ccccc1	Yes
CCOc1ccc2c(c1)/C(=C\C=C\C1CC(C)C3CC(OCC)CCC3N1CC)CC(C)N2CC (configuration not stated)	Yes
COc1cccc2c1C(=O)c1c(O)c3c(c(O)c1C2=O)C[C@@](O)(C(=O)CO)C[C@@H]3OC1CC(OC(C)=O)C(OC(C)=O)C(C)O1 (some centres not stated)	Yes
C(=N\Nc1ccc2ccccc2n1)/c1ccccn1	Yes
O=C1/C(=C/c2ccccc2)CCC/C1=C\c1ccccc1	No
CC1(C=O)CCC23COC4(CCC5C6(C)CCC(OC7OCC(OC8OC(CO)C(O)C(OC9OC(CO)C(O)C(O)C9O)C8OC8OCC(O)C(O)C8O)C(O)C7OC7OC(CO)C(O)C(O)C7O)C(C)(C)C6CCC5(C)C4(C)CC2O)C3C1 (configuration not stated)	Yes
Cc1ccccc1N=NC(C#N)C#N	Yes
S=c1[nH]c(=S)c2[nH]c(=S)[nH]c2[nH]1	No
CC(=O)C1Cc2ccccc2C1=O (configuration not stated)	Yes
Oc1cc(Cl)ccc1Cc1ccc(Cl)cc1O	Yes
CC1=CC(=O)C=CC1(C)C(Cl)(Cl)Cl (configuration not stated)	No
CN(Cc1ccccc1)c1ccc(SC#N)cc1	Yes
CC1(C)CCC[C@]2(C)[C@@H](C=O)C(C=O)=CC[C@@H]12	Yes
Clc1ccc(Cc2nc3ccccc3s2)cc1	Yes
COc1cc(/C=C2\SC(=S)N(/C=C/c3nc4ccccc4[nH]c3=O)C2=O)cc(OC)c1OC	No
CC(C)(C)c1ccc(O)c(Br)c1	No

Reference source: PubChem BioAssay (NCI)
